- EXPERIMENTAL SYSTEM: His-GST-TVMV-hRIPK1(1-324) (Homo sapiens, UniProt Q13546)
- Construct: The coding region of human RIPK1(1-324) flanked by NdeI site at 5′ end; made in house; host or cells: Spodoptera frugiperda (Sf9) insect cells, baculovirus
- Sequence (Q13546 1-324): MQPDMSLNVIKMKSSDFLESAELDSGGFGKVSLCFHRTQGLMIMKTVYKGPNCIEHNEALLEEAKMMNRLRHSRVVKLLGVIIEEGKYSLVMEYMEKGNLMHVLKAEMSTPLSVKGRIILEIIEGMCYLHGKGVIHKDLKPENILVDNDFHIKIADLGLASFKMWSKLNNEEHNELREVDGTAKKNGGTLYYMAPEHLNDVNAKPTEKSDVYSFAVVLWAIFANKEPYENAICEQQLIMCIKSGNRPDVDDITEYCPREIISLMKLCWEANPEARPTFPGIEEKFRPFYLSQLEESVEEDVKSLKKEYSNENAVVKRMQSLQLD
- EXPERIMENTAL PROTOCOL: RIPK1 HTRF Binding Assay
- TEST CONTEXT: x marks IC50 class 20-200 nM; read-out: RIPK1 HTRF binding 20-200 nM
pIC50: −log10 of the molar value.
Hi there, I'd appreciate the recorded pIC50 for every entry that follows.

// query Kindly indicate its recorded pIC50. Item: COc1nc(C)c(-c2ccn3nc(N)nc3c2)cc1C(=O)NCc1cc(C(F)(F)F)cc(Cl)c1F
// result 6.70 to 7.70

// query Fill in reported pIC50 for this entry: Cc1ncc(-c2ccn3nc(N)nc3c2)cc1C(=O)NCc1cccnc1OCC1CCCC1
// result 6.70 to 7.70

// query Report pIC50, nothing else, for this compound: COc1nnc(-c2ccn3nc(N)nc3c2)cc1C(=O)NCCC(C)c1ccccc1 (stereo not shown)
// result 6.70 to 7.70

// query Quick one: give measured pIC50 for Cc1ncc(-c2ccn3nc(N)nc3c2)cc1C(=O)NCc1ccc(F)cc1OCC1CC1
// result 6.70 to 7.70

// query Retrieve pIC50 measured for CC(CCNC(=O)c1ccnc(-c2ccn3nc(N)nc3c2)c1)c1ccccc1 (stereo not shown) and print it.
// result 6.70 to 7.70

// query Entry Cc1ncc(-c2ccn3nc(N)nc3c2)cc1C(=O)NCc1ccccc1OC(C)C needs its pIC50 filled in; supply it.
// result 6.70 to 7.70

// query Answer with the recorded pIC50 for the compound listed here: Cc1cnc(-c2ccn3nc(N)nc3c2)nc1C(=O)N[C@H](C)c1cc(OC(F)(F)F)ccc1F
// result 6.70 to 7.70

// query Report pIC50 for Cc1ncc(-c2ccn3nc(N)nc3c2)cc1C(=O)NCc1c(F)cccc1OCC(F)(F)F
// result 6.70 to 7.70

// query Hello, please tell me recorded pIC50 for this one: COc1nc(C)c(-c2ccn3nc(N)nc3c2)cc1C(=O)NCc1ccccc1CN1CCCCC1
// result 6.70 to 7.70

// query Consider the compound COc1nc(C)c(-c2ccn3nc(N)nc3c2)cc1C(=O)N(C)[C@H](C)c1cc(OC(F)(F)F)ccc1F . State its measured pIC50.
// result 6.70 to 7.70

// query Hello, please tell me recorded pIC50 for this one: [2H]C([2H])([2H])Oc1ncc(-c2ccn3nc(N)nc3c2)cc1C(=O)NCc1cc(C(F)(F)F)ccc1F
// result 6.70 to 7.70

// query Specify measured pIC50 for COc1ncc(-c2ccn3nc(N)nc3c2)cc1C(=O)NCc1ccccc1C(=O)N1CCC(F)(F)C1 .
// result 6.70 to 7.70

// query Identify pIC50 associated with the compound CCOc1ncc(-c2ccn3nc(N)nc3c2)cc1C(=O)NCC[C@H](O)c1ccc(Cl)cc1
// result 6.70 to 7.70

// query Name the recorded pIC50 of the item COc1nc(C)c(-c2ccn3nc(N)nc3c2)cc1C(=O)NCC[C@H](O)c1ccc(Cl)cc1 in your answer.
// result 6.70 to 7.70

// query Identify the reported pIC50 for the following entry. [2H]C([2H])(NC(=O)c1cc(-c2ccn3nc(N)nc3c2)c(C)nc1OC)c1cccc(C(F)(F)F)c1
// result 6.70 to 7.70

// query Give a short answer stating reported pIC50 for COc1nc(C)c(-c2ccn3nc(N)nc3c2)cc1C(=O)NCc1cc(F)cc(F)c1O[C@@H]1CCN(C)C1 .
// result 6.70 to 7.70

// query State its pIC50: Cc1ncc(-c2ccn3nc(N)nc3c2)cc1C(=O)NC(C)c1cc(C(F)(F)F)ccc1F (single isomer, unassigned)
// result 6.70 to 7.70

// query Kindly indicate its recorded pIC50. Item: CCc1ncc(-c2ccn3nc(N)nc3c2)cc1C(=O)N[C@@H](C)c1cc(OC(F)(F)F)ccc1F
// result 6.70 to 7.70

// query For the compound COc1ncc(-c2ccn3nc(N)nc3c2)cc1C(=O)NCc1cc(C(F)(F)F)ccc1F , give its reported pIC50.
// result 6.70 to 7.70

// query Report pIC50, nothing else, for this compound: COc1ncc(-c2ccn3nc(N)nc3c2)cc1C(=O)NCCCc1ccccc1
// result 6.70 to 7.70

// query Please list pIC50 recorded for the compound Cc1ncc(-c2ccn3nc(N)nc3c2)cc1C(=O)NCc1ccc(F)cc1OCC1CCCC1
// result 6.70 to 7.70

// query Item CC(CCNC(=O)c1cc(-c2ccn3nc(N)nc3c2)nc2ccc(F)cc12)c1ccccc1 (stereo not shown) : provide pIC50
// result 6.70 to 7.70

Recorded values, source patent US10913738B2.
